Molecular target: T1, IL10Rα/IL2Rγ receptor (human) (UniProt Q13651)
T1 sequence (looked up) 1: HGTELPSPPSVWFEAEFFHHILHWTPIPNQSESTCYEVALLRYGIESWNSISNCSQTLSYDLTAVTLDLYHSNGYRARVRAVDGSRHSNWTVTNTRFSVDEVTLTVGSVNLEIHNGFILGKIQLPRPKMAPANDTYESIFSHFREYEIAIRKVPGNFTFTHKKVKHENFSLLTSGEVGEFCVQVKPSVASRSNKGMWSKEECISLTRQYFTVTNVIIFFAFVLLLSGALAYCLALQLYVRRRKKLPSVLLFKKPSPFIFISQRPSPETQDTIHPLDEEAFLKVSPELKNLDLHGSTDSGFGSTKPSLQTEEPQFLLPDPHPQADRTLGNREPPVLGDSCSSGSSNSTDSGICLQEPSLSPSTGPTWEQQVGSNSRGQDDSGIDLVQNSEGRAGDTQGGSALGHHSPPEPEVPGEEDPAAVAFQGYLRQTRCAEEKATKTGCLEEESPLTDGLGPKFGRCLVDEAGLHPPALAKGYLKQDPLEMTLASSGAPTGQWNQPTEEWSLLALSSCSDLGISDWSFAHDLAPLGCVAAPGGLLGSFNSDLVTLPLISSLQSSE
T1 sequence (looked up) 2: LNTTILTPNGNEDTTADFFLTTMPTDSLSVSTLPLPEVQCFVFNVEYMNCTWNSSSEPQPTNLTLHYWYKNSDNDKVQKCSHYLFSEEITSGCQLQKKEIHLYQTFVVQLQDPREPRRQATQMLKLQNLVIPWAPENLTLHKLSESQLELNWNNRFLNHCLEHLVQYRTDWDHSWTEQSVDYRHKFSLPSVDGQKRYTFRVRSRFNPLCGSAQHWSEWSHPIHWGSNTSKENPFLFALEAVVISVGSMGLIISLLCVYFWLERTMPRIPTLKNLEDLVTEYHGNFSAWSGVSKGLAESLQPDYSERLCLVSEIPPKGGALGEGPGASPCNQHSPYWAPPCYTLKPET
Assay: cell-based or functional assay
ASSAY_METRIC: Granzyme A secretion, CD8 T cells, at 0.001 µM (pg/mL)
# value in pg/mL; strip the unit string

hIL10Ra_VHH14 - hIL2Rg_VHH19, No linker, tag his (bispecific antibody, not shown: small tags and cut ends) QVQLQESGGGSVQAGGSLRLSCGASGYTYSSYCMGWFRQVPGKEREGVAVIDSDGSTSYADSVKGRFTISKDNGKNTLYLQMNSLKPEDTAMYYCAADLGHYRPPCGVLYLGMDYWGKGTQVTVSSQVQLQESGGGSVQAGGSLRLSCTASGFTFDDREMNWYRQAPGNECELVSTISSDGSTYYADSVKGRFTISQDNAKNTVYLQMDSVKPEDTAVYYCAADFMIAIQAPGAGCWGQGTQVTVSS = 22300
hIL10Ra_VHH14 - hIL2Rg_VHH19, linker GGGS, tag his (bispecific antibody, not shown: small tags and cut ends) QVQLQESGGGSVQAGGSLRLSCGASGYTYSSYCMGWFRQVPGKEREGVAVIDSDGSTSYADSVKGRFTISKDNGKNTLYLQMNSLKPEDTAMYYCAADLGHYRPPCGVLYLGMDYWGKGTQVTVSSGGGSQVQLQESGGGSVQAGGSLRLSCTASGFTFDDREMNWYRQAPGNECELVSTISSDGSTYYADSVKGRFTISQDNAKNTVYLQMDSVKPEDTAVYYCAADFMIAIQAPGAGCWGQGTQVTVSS = 20900
hIL10Ra_VHH14 - hIL2Rg_VHH19, linker …, tag his (bispecific antibody, not shown: small tags and cut ends) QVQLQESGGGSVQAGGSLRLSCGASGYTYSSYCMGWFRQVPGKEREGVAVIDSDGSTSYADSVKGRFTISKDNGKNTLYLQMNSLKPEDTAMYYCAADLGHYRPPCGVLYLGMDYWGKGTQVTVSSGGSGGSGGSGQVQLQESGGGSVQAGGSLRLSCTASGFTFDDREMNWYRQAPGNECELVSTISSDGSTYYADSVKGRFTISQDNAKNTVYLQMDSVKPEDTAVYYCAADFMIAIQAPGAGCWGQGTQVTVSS = 25200
hIL10Ra_VHH14 - hIL2Rg_VHH19, linker GGGSGGGS, tag his (bispecific antibody, not shown: small tags and cut ends) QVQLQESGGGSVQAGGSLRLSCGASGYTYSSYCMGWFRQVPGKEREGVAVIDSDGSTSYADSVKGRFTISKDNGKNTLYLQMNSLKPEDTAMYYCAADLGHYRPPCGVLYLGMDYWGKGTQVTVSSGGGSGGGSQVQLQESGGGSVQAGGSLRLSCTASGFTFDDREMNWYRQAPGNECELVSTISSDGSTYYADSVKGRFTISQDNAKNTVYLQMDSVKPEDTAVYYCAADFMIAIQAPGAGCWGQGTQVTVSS = 22300

# input Please look up its Granzyme A secretion, CD8 T cells, at 0.001 µM: hIL10Ra_VHH14 - hIL2Rg_VHH19, linker GS, tag his (bispecific antibody, not shown: small tags and cut ends) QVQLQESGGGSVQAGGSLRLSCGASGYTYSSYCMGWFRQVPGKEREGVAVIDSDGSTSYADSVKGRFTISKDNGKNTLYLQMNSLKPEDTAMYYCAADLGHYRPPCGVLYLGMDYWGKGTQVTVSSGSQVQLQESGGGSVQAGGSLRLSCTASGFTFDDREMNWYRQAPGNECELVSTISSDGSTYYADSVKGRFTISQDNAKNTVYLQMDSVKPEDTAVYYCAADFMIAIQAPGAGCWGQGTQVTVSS
# output 22700

# input Please look up its Granzyme A secretion, CD8 T cells, at 0.001 µM: hIL10Ra_VHH14 - hIL2Rg_VHH19, linker GGSGGS, tag his (bispecific antibody, not shown: small tags and cut ends) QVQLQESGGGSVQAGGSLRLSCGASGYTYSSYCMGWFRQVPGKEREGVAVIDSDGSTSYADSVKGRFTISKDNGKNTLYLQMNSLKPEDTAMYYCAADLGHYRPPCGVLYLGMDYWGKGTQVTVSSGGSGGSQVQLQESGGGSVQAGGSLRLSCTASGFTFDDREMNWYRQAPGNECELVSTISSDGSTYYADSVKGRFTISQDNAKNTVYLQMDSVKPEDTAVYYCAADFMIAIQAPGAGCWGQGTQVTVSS
# output 23000

# input Please look up its Granzyme A secretion, CD8 T cells, at 0.001 µM: hIL10Ra_VHH14 - hIL2Rg_VHH19, linker GGGS, tag Fc (bispecific antibody, not shown: a dimerising Fc or GST) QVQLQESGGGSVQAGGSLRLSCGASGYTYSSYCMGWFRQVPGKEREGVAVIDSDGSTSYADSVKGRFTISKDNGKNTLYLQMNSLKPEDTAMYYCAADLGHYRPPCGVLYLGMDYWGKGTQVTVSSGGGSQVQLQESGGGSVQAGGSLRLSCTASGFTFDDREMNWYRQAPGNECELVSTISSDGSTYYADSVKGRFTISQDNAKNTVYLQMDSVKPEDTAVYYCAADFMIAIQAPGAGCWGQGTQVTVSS
# output 25900
